measured on: androgen receptor (AR) (Homo sapiens (Human), UniProt P10275)
Sequence (P10275 other isoform, or with tags, fused parts or gaps): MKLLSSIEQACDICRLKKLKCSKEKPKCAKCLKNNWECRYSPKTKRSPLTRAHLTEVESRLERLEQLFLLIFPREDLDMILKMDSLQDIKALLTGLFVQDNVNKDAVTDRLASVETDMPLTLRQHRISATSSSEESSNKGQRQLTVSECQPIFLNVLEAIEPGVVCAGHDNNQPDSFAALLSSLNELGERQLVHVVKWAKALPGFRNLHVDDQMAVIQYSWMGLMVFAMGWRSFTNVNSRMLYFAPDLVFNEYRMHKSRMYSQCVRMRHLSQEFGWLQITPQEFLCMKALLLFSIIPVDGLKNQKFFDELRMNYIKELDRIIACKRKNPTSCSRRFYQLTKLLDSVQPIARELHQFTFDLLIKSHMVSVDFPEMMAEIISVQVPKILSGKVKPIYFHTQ
method: Androgen receptor (AR) reporter assay, antagonist screen activated by R1881
run parameters: AR-UAS-bla GripTite 293 cells, antagonist mode, R1881 at EC80
measurement type: IC50

Examples with answers:
CCCc1nc(C)c2c(=O)[nH]c(-c3cc(N4C(=S)N(c5ccc(C#N)c(C(F)(F)F)c5F)C(=O)C45CCOC5)ccc3OCC)nn12 (stereo not drawn) [Compound 49] : 500 to 1000 nM
CCCc1nc(C)c2c(=O)[nH]c(-c3cc(N4C(=S)N(c5ccc(C#N)c(C(F)(F)F)c5)C(=O)C45CCOC5)ccc3OCC)nn12 (stereo not drawn) [Compound 34] : ≤ 500 nM
CCCc1nn(C)c2c(=O)[nH]c(-c3cc(N4C(=S)N(c5ccc(C#N)c(C(F)(F)F)c5)C(=O)C4(C)C)ccc3OCC)nc12 [Compound 13] : 500 to 1000 nM
CCCc1nc(C)c2c(=O)[nH]c(-c3cc(S(=O)(=O)NC4CC(=O)N(c5ccc(C#N)c(C(F)(F)F)c5)C4)ccc3OCC)nn12 (stereo not drawn) [Compound 33] : > 100 nM
CCCc1nc(C)c2c(=O)[nH]c(-c3cc(N4C(=S)N(c5ccc(C#N)c(C(F)(F)F)c5F)C(=O)C45CCCC5)ccc3OCC)nn12 [Compound 50] : ≤ 500 nM

Then there is this molecule:
Can you look up IC50 on androgen receptor (AR) (Homo sapiens (Human), UniProt P10275) for CCCc1nc(C)c2c(=O)[nH]c(-c3cc(NC(=S)Nc4ccc(C#N)c(C(F)(F)F)c4)ccc3OCC)nn12 [Compound 28] ?
> 100 nM

* * *

Can you tell me IC50 for the items I'm about to list?
measured on: Human androgen receptors (Homo sapiens (Human), UniProt P10275, T878A)
Sequence (P10275 whole entry T878A): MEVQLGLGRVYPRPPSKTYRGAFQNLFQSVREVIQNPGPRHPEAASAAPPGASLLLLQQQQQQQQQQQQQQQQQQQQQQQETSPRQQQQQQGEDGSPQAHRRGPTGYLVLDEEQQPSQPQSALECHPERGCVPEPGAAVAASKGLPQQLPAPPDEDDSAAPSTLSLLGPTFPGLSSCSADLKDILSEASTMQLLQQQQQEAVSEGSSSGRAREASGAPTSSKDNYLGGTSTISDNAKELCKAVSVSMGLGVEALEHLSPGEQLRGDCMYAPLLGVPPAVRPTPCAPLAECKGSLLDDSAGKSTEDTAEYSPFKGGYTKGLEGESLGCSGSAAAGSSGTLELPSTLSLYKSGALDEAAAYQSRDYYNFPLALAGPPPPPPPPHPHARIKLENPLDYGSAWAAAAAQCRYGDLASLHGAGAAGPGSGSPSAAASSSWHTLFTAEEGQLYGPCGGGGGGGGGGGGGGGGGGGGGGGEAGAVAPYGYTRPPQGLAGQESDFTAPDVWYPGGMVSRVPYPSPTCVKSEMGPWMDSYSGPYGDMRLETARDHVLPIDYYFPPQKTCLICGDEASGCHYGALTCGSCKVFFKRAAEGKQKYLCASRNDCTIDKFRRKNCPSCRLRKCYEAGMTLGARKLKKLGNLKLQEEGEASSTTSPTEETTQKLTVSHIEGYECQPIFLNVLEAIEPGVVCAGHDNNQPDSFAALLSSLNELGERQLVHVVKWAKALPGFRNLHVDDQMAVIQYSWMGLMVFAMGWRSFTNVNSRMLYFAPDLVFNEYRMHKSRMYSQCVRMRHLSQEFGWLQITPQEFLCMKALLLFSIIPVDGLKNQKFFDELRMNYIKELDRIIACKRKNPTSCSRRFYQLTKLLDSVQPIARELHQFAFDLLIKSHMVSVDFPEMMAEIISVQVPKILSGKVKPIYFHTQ
method: Androgen receptor (AR) radioligand binding assay
run parameters: receptors from human LNCaP cells, 0.5 nM [3H]Methyltrienolone, 20 hours at 4° C.; read-out: AR IC50

Respectfully, I request IC50 for each entry included below.
1. CCCc1nc(C)c2c(=O)[nH]c(-c3cc(S(=O)(=O)NC4CC(=O)N(c5ccc(C#N)c(C(F)(F)F)c5)C4)ccc3OCC)nn12 (centres unmarked)
2. CCCc1nc(C)c2c(=O)[nH]c(-c3cc(N4C(=S)N(c5ccc(C#N)c(C(F)(F)F)c5F)C(=O)C45CCC5)ccc3OCC)nn12
3. CCCc1nn(C)c2c(=O)[nH]c(-c3cc(N4C(=S)N(c5cnc(C#N)c(C(F)(F)F)c5)C(=O)C45CCC5)ccc3OCC)nc12

> 200 nM
< 50 nM
> 200 nM

Respectfully, I request IC50 for each entry included below.
1. CCCc1nc(C)c2c(=O)[nH]c(-c3cc(N4C(=S)N(c5ccc(C#N)c(C(F)(F)F)c5F)C(=O)C45CCOC5)ccc3OCC)nn12 (centres unmarked)
2. CCCc1nn(C)c2c(=O)[nH]c(-c3cc(N4C(=S)N(c5cnc(C#N)c(C(F)(F)F)c5)C(=O)C4(C)C)ccc3OCC)nc12
3. CCCc1nc(C)c2c(=O)[nH]c(-c3cc(S(=O)(=O)NC4CCN(c5ccc(C#N)c(C(F)(F)F)c5)CC4)ccc3OCC)nn12

["< 50 nM", "> 200 nM", "< 50 nM"]

Respectfully, I request IC50 for each entry included below.
1. CCCc1nc(C)c2c(=O)[nH]c(-c3cc(N4C(=S)N(c5ccc(C#N)c(C(F)(F)F)c5)C(=O)C4(C)C)ccc3OCC)nn12
2. CCCc1nc(C)c2c(=O)[nH]c(-c3cc(S(=O)(=O)NC4CCN(c5ccc(C#N)c(C(F)(F)F)c5)C4=O)ccc3OCC)nn12 (centres unmarked)
3. CCCc1nn(C)c2c(=O)[nH]c(-c3cc(N4C(=S)N(c5ccc(C#N)c(C(F)(F)F)c5)C(=O)C45CCC5)ccc3OCC)nc12
4. CCCc1nc(C)c2c(=O)[nH]c(-c3cc(N4C(=S)N(c5ccc(C#N)c(C(F)(F)F)c5F)C(=O)C45CCCC5)ccc3OCC)nn12
5. CCCc1nc(C)c2c(=O)[nH]c(-c3cc(N4C(=S)N(c5ccc(C#N)c(C(F)(F)F)c5F)C(=O)C4(C)C)ccc3OCC)nn12

["< 50 nM", "> 200 nM", "> 200 nM", "< 50 nM", "< 50 nM"]

Respectfully, I request IC50 for each entry included below.
1. CCCc1nc(C)c2c(=O)[nH]c(-c3cc(N4C(=S)N(c5ccc(C#N)c(C(F)(F)F)c5)C(=O)C4C)ccc3OCC)nn12 (centres unmarked)
2. CCCc1nn(C)c2c(=O)[nH]c(-c3cc(N4C(=S)N(c5ccc(C#N)c(C(F)(F)F)c5)C(=O)C4(C)C)ccc3OCC)nc12
3. CCCc1nc(C)c2c(=O)[nH]c(-c3cc(N4C(=S)N(c5ccc(C#N)c(C(F)(F)F)c5)C(=O)C45CCCC5)ccc3OCC)nn12

1: > 200 nM; 2: > 200 nM; 3: < 50 nM

Attribution: patent US11787812B2
